SYSTEM_TESTED: human MAO-A (Homo sapiens)
Construct: purchased Sigma-Aldrich
Sequence (P21397 1-527): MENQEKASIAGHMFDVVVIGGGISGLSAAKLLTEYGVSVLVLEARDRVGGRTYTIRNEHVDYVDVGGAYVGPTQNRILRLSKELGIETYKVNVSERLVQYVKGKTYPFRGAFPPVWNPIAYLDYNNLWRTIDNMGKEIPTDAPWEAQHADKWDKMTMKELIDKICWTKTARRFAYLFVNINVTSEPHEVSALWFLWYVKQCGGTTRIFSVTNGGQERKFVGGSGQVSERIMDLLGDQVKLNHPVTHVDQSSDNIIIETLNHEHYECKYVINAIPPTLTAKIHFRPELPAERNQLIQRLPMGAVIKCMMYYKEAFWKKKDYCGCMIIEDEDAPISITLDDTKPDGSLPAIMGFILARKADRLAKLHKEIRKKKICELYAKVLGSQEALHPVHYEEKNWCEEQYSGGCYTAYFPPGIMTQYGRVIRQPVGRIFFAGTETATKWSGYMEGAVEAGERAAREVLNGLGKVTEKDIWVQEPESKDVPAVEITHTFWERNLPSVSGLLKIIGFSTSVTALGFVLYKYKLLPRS
MEASUREMENT_DESCRIPTION: IC50 determination for MAO-A inhibition (kynuramine, fluorescence)
Type: biochemical
CONDITIONS_USED: recombinant hMAO-A, kynuramine 50 μM, mean ± SD (triplicate)
Method: IC50 values for the inhibition of MAO were determined by using the recombinant human MAO-A and MAO-B enzymes (Sigma-Aldrich). […] A volume of 80 µL 2 N sodium hydroxide was added to the reactions, and the fluorescence intensity of 4-hydroxyquinoline (the end-product of the MAO-catalyzed metabolism of kynuramine) in the reactions was measured at λex 310 and λem 400 nm. To quantify 4-hydroxyquinoline, a calibration curve (linear) ranging from 0.047 to 1.56 μM, was employed. […]
OBSERVED_PROPERTY: IC50 (µM)

Answered examples (3):
COc1cccc(/C=C/C(=O)c2ccc(Br)cc2)c1OC: 6.59
O=C(/C=C/c1ccc(Cl)cc1)c1ccc2c(c1)OCO2: 0.149
O=C(/C=C/c1cccc2c1OCO2)c1ccc(Cl)cc1: 18.1

a. COc1cc(OC)c(/C=C/C(=O)c2ccc(Br)cc2)c(OC)c1
b. O=C(/C=C/c1ccc(Br)cc1)c1ccc2c(c1)OCO2
c. CN(C)c1ccc(/C=C/C(=O)c2cccc(C(F)(F)F)c2)cc1
d. O=C(/C=C/c1ccc([N+](=O)[O-])cc1)c1ccc(Cl)cc1
Q: Sort (4 compounds) by IC50: min first. Output the labels ranked as instructed.
A: b, a, c, d

---

SYSTEM_TESTED: human MAO-A (Homo sapiens)
Construct: purchased Sigma-Aldrich
Sequence (P21397 1-527): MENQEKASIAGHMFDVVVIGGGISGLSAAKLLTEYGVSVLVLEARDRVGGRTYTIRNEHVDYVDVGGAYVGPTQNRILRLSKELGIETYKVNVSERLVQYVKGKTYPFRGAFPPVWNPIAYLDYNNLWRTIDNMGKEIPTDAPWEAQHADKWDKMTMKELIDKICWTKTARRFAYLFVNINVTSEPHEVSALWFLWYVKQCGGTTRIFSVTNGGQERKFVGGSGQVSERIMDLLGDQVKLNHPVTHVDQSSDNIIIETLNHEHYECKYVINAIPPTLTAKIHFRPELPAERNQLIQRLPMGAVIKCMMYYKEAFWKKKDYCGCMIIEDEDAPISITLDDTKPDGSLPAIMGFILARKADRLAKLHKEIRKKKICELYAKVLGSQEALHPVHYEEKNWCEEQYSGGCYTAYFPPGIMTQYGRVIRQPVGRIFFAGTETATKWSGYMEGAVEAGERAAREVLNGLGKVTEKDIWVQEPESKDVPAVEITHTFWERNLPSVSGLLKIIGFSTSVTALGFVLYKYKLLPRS
MEASUREMENT_DESCRIPTION: IC50 determination for MAO-A inhibition (kynuramine, fluorescence)
Type: biochemical
CONDITIONS_USED: recombinant hMAO-A, kynuramine 50 μM, mean ± SD (triplicate)
OBSERVED_PROPERTY: IC50 (µM)

Recorded IC50, per entry:
O=C(/C=C/c1ccc([N+](=O)[O-])cc1)c1ccc(F)cc1 [Compound 12]: 11.9
CSc1ccc(C(=O)/C=C/c2cccc(Br)c2)cc1 [Compound 11]: 96.6
O=C(/C=C/c1cccc2c1OCO2)c1ccc(Br)cc1 [Compound 5]: 7.18
COc1cc(OC)c(/C=C/C(=O)c2ccc(F)cc2)c(OC)c1 [Compound 19]: 0.444

I. O=C(/C=C/c1ccc([N+](=O)[O-])cc1)c1ccc2c(c1)OCO2 [Compound 17]
II. O=C(/C=C/c1ccc(F)cc1)c1ccc2c(c1)OCO2 [Compound 14]
III. COc1cc(Br)ccc1/C=C/C(=O)c1ccc(S(C)(=O)=O)cc1 [Compound 10]
IV. COc1ccccc1/C=C/C(=O)c1ccc(Br)cc1 [Compound 20]
Q: Ascending sort, IC50. Response field: labels, in requested order.
A: II, I, IV, III
(II: 0.506 µM, I: 0.927 µM, IV: 5.81 µM, III: 87.3 µM)

---

SYSTEM_TESTED: human MAO-B (Homo sapiens, UniProt P27338)
Construct: purchased Sigma-Aldrich
MEASUREMENT_DESCRIPTION: IC50 determination for MAO-B inhibition (kynuramine, fluorescence)
Type: biochemical
CONDITIONS_USED: SI = IC50(MAO-A)/IC50(MAO-B)
OBSERVED_PROPERTY: Selectivity index

a. O=C(/C=C/c1ccc(Br)cc1)c1ccc2c(c1)OCO2
b. O=C(/C=C/c1cccc2c1OCO2)c1ccc(Br)cc1
Q: Which item exceeds the other in Selectivity index, a or b ? Give the chosen item's label as your response.
A: b

---

SYSTEM_TESTED: human MAO-B (Homo sapiens, UniProt P27338)
Construct: purchased Sigma-Aldrich
Sequence (P27338 1-520): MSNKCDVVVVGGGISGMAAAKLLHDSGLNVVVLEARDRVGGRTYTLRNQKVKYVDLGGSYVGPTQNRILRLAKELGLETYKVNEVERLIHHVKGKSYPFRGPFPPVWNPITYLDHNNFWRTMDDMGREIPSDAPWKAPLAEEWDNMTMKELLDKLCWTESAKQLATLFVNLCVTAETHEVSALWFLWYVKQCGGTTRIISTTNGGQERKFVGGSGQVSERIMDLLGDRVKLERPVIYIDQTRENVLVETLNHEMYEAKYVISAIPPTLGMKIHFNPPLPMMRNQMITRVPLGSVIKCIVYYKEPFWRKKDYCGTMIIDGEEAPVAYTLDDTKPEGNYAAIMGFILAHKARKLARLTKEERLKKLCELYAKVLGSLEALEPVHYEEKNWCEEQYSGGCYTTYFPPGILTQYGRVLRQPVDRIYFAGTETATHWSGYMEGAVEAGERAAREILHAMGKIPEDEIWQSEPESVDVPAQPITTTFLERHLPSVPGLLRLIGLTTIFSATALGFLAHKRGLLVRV
MEASUREMENT_DESCRIPTION: IC50 determination for MAO-B inhibition (kynuramine, fluorescence)
Assay type: biochemical
CONDITIONS_USED: SI = IC50(MAO-A)/IC50(MAO-B)
OBSERVED_PROPERTY: Selectivity index

COc1cc(Br)ccc1/C=C/C(=O)c1ccc(S(C)(=O)=O)cc1: 150
CN(C)c1ccc(/C=C/C(=O)c2cccc(C(F)(F)F)c2)cc1: 116

a. O=C(/C=C/c1cccc2c1OCO2)c1ccc(Cl)cc1
b. O=C(/C=C/c1ccc(F)cc1)c1ccc2c(c1)OCO2
Q: // max by Selectivity index over [ a , b ] // return label of chosen record
A: a

---

Overview of reported melting point across a group of molecules:

Examples with answers:
COc1cccc(/C=C/C(=O)c2ccc(Br)cc2)c1OC [Compound 21]: 120 to 124 °C
CCOc1cccc(/C=C/C(=O)c2ccc(Br)cc2)c1OCC [Compound 22]: 75 to 79 °C
CSc1ccc(C(=O)/C=C/c2cccc(Br)c2)cc1 [Compound 11]: 139 to 143 °C
O=C(/C=C/c1ccc([N+](=O)[O-])cc1)c1ccc2c(c1)OCO2 [Compound 17]: 172 to 175 °C

Proceeding to the next molecule to report its melting point.
Q: Using the record for O=C(/C=C/c1ccc(Br)cc1)c1ccc2c(c1)OCO2 [Compound 15] , state its measured melting point.
A: 150 to 153 °C

---

OBSERVED_PROPERTY: melting point

Example compounds with recorded melting point:
O=C(/C=C/c1cccc2c1OCO2)c1ccc(Cl)cc1 [Compound 6]: 83 to 87 °C
O=C(/C=C/c1cccc2c1OCO2)c1ccc(Br)cc1 [Compound 5]: 96 to 100 °C
O=C(/C=C/c1cccc2c1OCO2)c1cccc(Br)c1 [Compound 7]: 107 to 111 °C
O=C(/C=C/c1ccc(F)cc1)c1ccc2c(c1)OCO2 [Compound 14]: 126 to 130 °C
CS(=O)(=O)c1ccc(C(=O)/C=C/c2ccc(Br)cc2)cc1 [Compound 9]: 206 to 210 °C

Q: Determine from records and report melting point for O=C(/C=C/c1cccc2c1OCO2)c1cccc(Cl)c1 [Compound 8]
A: 79 to 83 °C
